Assay procedure: qHTS assay to identify small molecule antagonists of the estrogen related receptor (ERR) signaling pathway (AID 1224819; further: nearly all actives have a fitted effect of over 50% in size)
Condition details: ERR reporter cell line, luciferase inhibition; series mostly up to 46.1 µM
Records with an inconclusive call do not appear. Activity calls are given as the source filed them. The call rests on the fitted dose curve; in most records, active means well fitted inhibition curve with a large enough effect in the repeat runs; inconclusive means weak or mixed curves; inactive means no such curve, though single readings can be large or run the other way.
Labels: t (active), f (inactive)

NC(=O)c1cc[n+](CC2=C(C(=O)O)N3C(=O)[C@@H](NC(=O)[C@@H](c4ccccc4)S(=O)(=O)[O-])[C@H]3SC2)cc1 | f
CNc1cc(NS(=O)(=O)c2ccc(N)cc2)nc(NC)n1 | f
O=C1NC(=O)c2cc(Nc3ccccc3)c(Nc3ccccc3)cc21 | t
CCCn1c(=O)c2[nH]c(C3CCCC3)nc2n(CCC)c1=O | f
CCN(CC)CCNC(=O)c1ccc(NS(C)(=O)=O)cc1 | f
Cc1cccc(-c2[nH]ncc2-c2ccc3ncccc3n2)n1 | t
Fc1cccc(/C=N/N=C/c2cccc(F)c2)c1 | f
COc1ccccc1N1CCN(CCCNc2c(C)c(=O)n(C)c(=O)n2C)CC1 | f
N#Cc1cc2nc(O)c(O)nc2cc1[N+](=O)[O-] | f
Cn1c(=O)c(-c2c(Cl)cccc2Cl)cc2cnc(Nc3ccc(N4CCOCC4)cc3)nc21 | t

----------
Assay procedure: Caspase-3/7 induction in CHO-K1 cells by small molecules, qHTS assay (AID 1346980); further: on the % scale 0 is the no-effect control and ±100 the full control effect; nearly all actives have a fitted effect of over 15% in size
Condition details: CHO-K1 caspase-3/7 induction, Caspase-Glo luminescence, 17 h; series mostly up to 92.4 µM
Active and inactive are the calls of the source. Calls follow the shape of the dose curve; as a rule, active = well fitted activation curve with a large enough effect in the repeat runs; inconclusive = weak or mixed curves; inactive = flat fitted curve, though single readings scatter.
Measured property: caspase-3/7 activation

O=C(O)CN(CCCN(CC(=O)O)CC(=O)O)CC(=O)O | 5.17% [at 19 µM] (inactive)
C=C[Si](C)(C)Cl | 0.183% [at 8.39 µM] (inactive)
CCCCNc1ccc(NCCCC)c2c1C(=O)c1ccccc1C2=O | 2.79% [at 19 µM] (inactive)
C=CC(=O)OCCOC1C2CCC1C1CC=CC12 (stereo not given) | 0.29% [at 19 µM] (inactive)
COc1cc(C(C)C)ccc1C | -1.8% [at 19 µM] (inactive)

----------
Assay procedure: qHTS assay to identify small molecule antagonists of the estrogen receptor alpha (ER-alpha) signaling pathway using the BG1 cell line - cell viability counter screen (AID 743081);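 further: compound given together with 17beta-estradiol as the ER stimulus; nearly all actives have a fitted effect of over 45% in size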
Condition details: BG1Luc4E2 viability, CellTiter-Fluor, 22 h; series mostly up to 70.3 µM
Records with an inconclusive call do not appear. Calls of active or inactive are those of the source. The call rests on the fitted dose curve; in most records, active means well fitted cell-killing curve with a large enough effect in the repeat runs; inconclusive means weak or mixed curves, or effect the other way; inactive means flat fitted curve, though single readings scatter.
Possible outcomes: active, inactive

NC(=O)CC[C@@H]1NC(=O)[C@H](Cc2ccccc2)NC(=O)[C@H](Cc2ccc(O)cc2)NC(=O)[C@@H](N)CSSC[C@@H](C(=O)N2CCC[C@H]2C(=O)N[C@@H](CCCN=C(N)N)C(=O)NCC(N)=O)NC(=O)[C@H](CC(N)=O)NC1=O | inactive
CN[C@H](CC(C)C)C(=O)N[C@H]1C(=O)N[C@@H](CC(N)=O)C(=O)N[C@H]2C(=O)N[C@H]3C(=O)N[C@H](C(=O)N[C@@H](C(=O)O)c4cc(O)cc(O)c4-c4cc3ccc4O)[C@H](O)c3ccc(c(Cl)c3)Oc3cc2cc(c3O[C@@H]2O[C@H](CO)[C@@H](O)[C@H](O)[C@H]2O[C@H]2C[C@](C)(N)C(O)[C@H](C)O2)Oc2ccc(cc2Cl)[C@H]1O (some centres undefined) | inactive
CN(C/C=C/c1ccccc1)Cc1cccc2ccccc12 | inactive
NC(N)=NCc1cccc(I)c1 | inactive
CC(C)(COP(=O)(O)OP(=O)(O)OC[C@H]1O[C@@H](n2cnc3c(N)ncnc32)[C@H](O)[C@@H]1OP(=O)(O)O)C(O)C(=O)NCCC(=O)NCCS (some centres undefined) | inactive
N[C@@H](Cc1ccc(O)c(O)c1)C(=O)O | inactive
COC(=O)C[C@](O)(CCCC(C)(C)O)C(=O)O[C@@H]1C(OC)=CC23CCCN2CCc2cc4c(cc2[C@H]13)OCO4 (some centres undefined) | inactive
CCCCCCCCCCCC[n+]1ccc2ccccc2c1 | active
CCCn1c(=O)[nH]c(=O)c2[nH]cnc21 | inactive
O=C1CCC/C=C\CCCCCCCCCC1 | inactive
CC(C)c1ncc([N+](=O)[O-])n1C | inactive
CCCCC[C@H](O)/C=C/[C@@H]1[C@@H](C/C=C\CCCC(=O)O)[C@@H](O)C[C@H]1O | inactive
CO[C@H](C(=O)[C@@H](O)[C@@H](C)O)C1Cc2cc3cc(O[C@H]4C[C@@H](O[C@H]5C[C@@H](O)[C@H](O)[C@@H](C)O5)[C@@H](O)[C@@H](C)O4)c(C)c(O)c3c(O)c2C(=O)[C@H]1O[C@H]1C[C@@H](O[C@H]2C[C@@H](O[C@H]3C[C@](C)(O)[C@H](O)[C@@H](C)O3)[C@H](O)[C@@H](C)O2)[C@H](O)[C@@H](C)O1 (some centres undefined) | inactive
C/C(=C(/CCO)SSCC1CCCO1)N(C=O)Cc1cnc(C)nc1N (centres undefined) | inactive

----------
Target system: Glucocorticoid receptor (Homo sapiens) (UniProt P04150)
Sequence (P04150 whole entry, looked up): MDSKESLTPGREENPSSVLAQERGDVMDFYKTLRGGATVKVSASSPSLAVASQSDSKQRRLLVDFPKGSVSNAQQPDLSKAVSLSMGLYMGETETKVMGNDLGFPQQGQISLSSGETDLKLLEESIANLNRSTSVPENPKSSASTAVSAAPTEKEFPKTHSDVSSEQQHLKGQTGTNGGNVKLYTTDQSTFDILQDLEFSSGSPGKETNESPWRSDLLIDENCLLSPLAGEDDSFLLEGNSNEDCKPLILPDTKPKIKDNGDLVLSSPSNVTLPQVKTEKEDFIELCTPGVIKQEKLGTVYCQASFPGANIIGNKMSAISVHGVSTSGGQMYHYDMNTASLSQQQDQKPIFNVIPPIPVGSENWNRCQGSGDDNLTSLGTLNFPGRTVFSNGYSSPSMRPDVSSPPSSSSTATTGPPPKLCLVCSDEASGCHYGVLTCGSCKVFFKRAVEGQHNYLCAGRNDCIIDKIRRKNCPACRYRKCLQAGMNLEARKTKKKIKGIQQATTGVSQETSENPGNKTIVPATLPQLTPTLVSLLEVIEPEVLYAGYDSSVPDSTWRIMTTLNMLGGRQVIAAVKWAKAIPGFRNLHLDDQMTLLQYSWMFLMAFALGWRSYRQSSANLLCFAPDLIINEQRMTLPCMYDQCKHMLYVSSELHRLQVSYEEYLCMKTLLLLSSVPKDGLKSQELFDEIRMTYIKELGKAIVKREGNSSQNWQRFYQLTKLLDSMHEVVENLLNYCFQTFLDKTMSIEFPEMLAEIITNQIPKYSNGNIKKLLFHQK
Assay procedure: qHTS assay to identify small molecule agonists of the glucocorticoid receptor (GR) signaling pathway (AID 720691); further: on the % scale 0 is the no-effect control and ±100 the full control effect
Condition details: GR-bla HeLa, beta-lactamase reporter ratio, 18 h
Results filed as inconclusive are left out. Active and inactive are the calls of the source. Calls come from the whole dose curve; as a rule, active = well fitted activation curve with a large enough effect in the signal ratio in the repeat runs (not every such curve was filed as active); inconclusive = weak or mixed curves, or effect the other way; inactive = no such curve, though single readings can be large or run the other way; the % refers to the signal ratio. Positions of bridges follow the written chain, without caps; N, C: chain ends. Non-standard residues stand in square brackets, D forms with d. Residues, ends and D or L forms follow the SMILES beside them. *: point of attachment. Dab(CH2SO3H) = N[C@@H](CCNCS(=O)(=O)O)C(=O)O; X3 = CC[C@@H](C)CCCCC(=O)*; Dab = NCC[C@H](N)C(=O)O
Measured property: outcome

C[N+](C)(C)CCOP(=O)(O)OP(=O)([O-])OC[C@H]1O[C@@H](n2ccc(N)nc2=O)[C@H](O)[C@@H]1O | inactive
OCl | inactive
CNC(=O)C[C@@H](N)C(=O)N[C@@H](C(=O)N[C@@H]1C(=O)N2[C@@H]1SC(C)(C)[C@@H]2C(=O)O)c1ccc(O)cc1 | inactive
CCOc1ccc(S(=O)(=O)O)c2cccnc12 | inactive
Nc1c(CC(=O)O)cccc1C(=O)c1ccccc1 | inactive
FC(F)(F)COCC(F)(F)F | inactive
C=CC[N+]1([C@H]2C[C@H]3[C@@H]4CC[C@H]5C[C@H](O)[C@@H](N6CCOCC6)C[C@]5(C)[C@H]4CC[C@]3(C)[C@H]2OC(C)=O)CCCC1 | inactive
O=P(O)(O)OP(=O)(O)OP(=O)(O)O | inactive
Cc1cc(Br)ccc1NC(=O)CCl | inactive
O=C1C2CC3CC1CC(O)(C3)C2 | inactive
COc1ccc([C@@H]2CC(=O)c3c(O)cc(O[C@@H]4O[C@H](CO[C@@H]5O[C@@H](C)[C@H](O)[C@@H](O)[C@H]5O)[C@@H](O)[C@H](O)[C@H]4O)cc3O2)cc1O | inactive
Cc1cc(N)c2ccccc2[n+]1CCCCCCCCCC[n+]1c(C)cc(N)c2ccccc21 | inactive
O=P(O)(O)C(O)(Cn1ccnc1)P(=O)(O)O | inactive
SC1CCCCC1 | inactive
CN[C@H](CC(C)C)C(=O)N[C@H]1C(=O)N[C@@H](CC(N)=O)C(=O)N[C@H]2C(=O)N[C@H]3C(=O)N[C@H](C(=O)N[C@@H](C(=O)O)c4cc(O)cc(O)c4-c4cc3ccc4O)[C@H](O)c3ccc(c(Cl)c3)Oc3cc2cc(c3O[C@@H]2O[C@H](CO)[C@@H](O)[C@H](O)[C@H]2O[C@H]2C[C@](C)(N)C(O)[C@H](C)O2)Oc2ccc(cc2Cl)[C@H]1O (stereo partly drawn) | inactive
N[C@H](CO)C(=O)O | inactive
C=CC(N)CCC(=O)O (stereo not drawn) | inactive
CO/N=C(\C(=O)N[C@@H]1C(=O)N2C(C(=O)O)=C(COC(C)=O)CS[C@H]12)c1csc(N)n1 (stereo in doubt) | inactive
c1ccc(-n2cnnn2)cc1 | inactive
CC(=O)OCC(=O)[C@@]1(O)CC[C@H]2[C@@H]3CCC4=CC(=O)CC[C@]4(C)C3=CC[C@@]21C | inactive
CO/N=C(\C(=O)N[C@@H]1C(=O)N2C(C(=O)O)=C(CSc3nc(C)c(CC(=O)O)s3)CS[C@H]12)c1csc(N)n1 | inactive
CNC(=O)OCc1cccc(COC(=O)NC)n1 | inactive
NCCO/C=C/[C@H](N)C(=O)O | inactive
CC(C)CCC[C@@H](C)[C@H]1CC[C@H]2[C@@H]3CC=C4C[C@@H](O)CC[C@]4(C)[C@H]3CC[C@]12C | inactive
O=S(=O)(O)CC(S)CS (stereo not drawn) | inactive
O=C(O)/C=C/C(O)c1ccc(Cl)cc1 (stereo not drawn) | inactive
CCCOC(=O)c1ccccc1O | inactive
Nc1nc(NC2CC2)c2ncn([C@@H]3C=C[C@@H](CO)C3)c2n1 | inactive
CCCC(=O)c1cc(O)c(O)cc1O | inactive
CC1(C)CCC(NC(=O)[C@@H](N)CCC(=O)O)CC1 | inactive
C[C@@H]1C(=O)NC2=Nc3cccc(Cl)c3CN21 | inactive
CCN(CC)C(=O)[C@]1(c2ccccc2)C[C@@H]1CN | inactive
CC1CCCC(C)N1NC(=O)c1ccc(Cl)c(S(N)(=O)=O)c1 (stereo not drawn) | inactive
CC[C@@H](C)CCCCC(=O)N[C@@H](CCNCS(=O)(=O)O)C(=O)N[C@H](C(=O)N[C@@H](CCNCS(=O)(=O)O)C(=O)N[C@H]1CCNC(=O)[C@H]([C@@H](C)O)NC(=O)[C@H](CCNCS(=O)(=O)O)NC(=O)[C@H](CCNCS(=O)(=O)O)NC(=O)[C@H](CC(C)C)NC(=O)[C@@H](CC(C)C)NC(=O)[C@H](CCNCS(=O)(=O)O)NC1=O)[C@@H](C)O (X3-[Dab(CH2SO3H)]T[Dab(CH2SO3H)][Dab][Dab(CH2SO3H)][dL]L[Dab(CH2SO3H)][Dab(CH2SO3H)]T; lactam 4-C) | inactive
CC(C)NCC1CCc2cc(CO)c([N+](=O)[O-])cc2N1 (stereo not drawn) | inactive
O=C1CCCCCCCCCCCCCC1 | inactive
O=C1CC[C@@H](C(=O)N[C@H]2C[C@@H]2c2ccccc2)N1 | inactive
CC(C)(Oc1ccc(C2CCCc3ccccc32)cc1)C(=O)O (stereo not drawn) | inactive
